- EXPERIMENTAL_TARGET: T1, Synthetic TMEM97 (108-176)
- T1 peptide: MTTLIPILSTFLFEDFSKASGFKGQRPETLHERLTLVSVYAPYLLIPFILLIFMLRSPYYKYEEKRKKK
- TEST_PROTOCOL: SPR
pKd: −log10 of the molar value. Where no end group is shown, it is not given here. [ ]: non-standard residue; d: D form. pS = N[C@@H](COP(=O)(O)O)C(=O)O
MEASUREMENT_LABEL: pKd

BINDER | VALUE_MEASURED
D[pS]HEKRHHGYRRKFHEKHHSHREFPFYGDYGSNYLYDN [Histatin-1 (Hst1)] | 5.20
